// GI50 lookup, one value per entry
System: OVCAR-4 ovarian
run-description: NCI tumour cell line growth inhibition, 48 h

compound: CCn1cc(C(=O)O)c(=O)c2cc(F)c(N3CCN(S(=O)(=O)c4ccc(Cl)cc4)CC3)cc21
GI50: 2200 nM
//
compound: COc1ccc2[nH]c(-c3ccccc3)c(/C=C(\C#N)S(=O)(=O)c3ccccc3)c2c1
GI50: 8330 nM

Data request: Given the entry [Cl-].[Cl-].[Cl-].[O-]c1cccc2cccnc12.[O-]c1cccc2cccnc12.[O]=[Mo] , report its measured GI50.
Data returned: 3900 nM

Data request: If you can, please state the reported GI50 value of CC(=O)O[C@H]1CCC2(C)C(=CCC3C2CCC2(C)/C(=N/OC(=O)c4ccc(N(CCCl)CCCl)cc4)CCC32)C1 (stereo not given in full) .
Data returned: 7780 nM

Data request: Consider the compound shown here: O=C1Nc2cc(Cl)ccc2/C1=C\c1c(-c2ccc(F)cc2)nc2ccccn12 What is its recorded GI50?
Data returned: 1450 nM

Data request: Looking for the measured GI50 of O=c1c2cc(F)ccc2sc2c(N3CCNCC3)nc3ccccc3c12 , can you help?
Data returned: 1740 nM

Data request: Given O=C(Nc1cccc(-n2cc(-c3ccncc3)c(-c3ccc(Cl)c(O)c3)n2)c1)Nc1ccc(Cl)c(C(F)(F)F)c1 , state its recorded GI50.
Data returned: 1120 nM

Data request: Name the recorded GI50 for CCCCN1CCN(c2ccc3nc(-c4ccc5nc(-c6ccc(OC)c(OC)c6)[nH]c5c4)[nH]c3c2)CC1 .
Data returned: 334 nM

Data request: Requested read-out: GI50. Entry: CCc1ccc(CNCC(O)c2ccccc2)cc1 (stereo not given)
Data returned: 29600 nM

Data request: Which value of GI50 has been reported for NCCN.NCCN.[Cl-].[O]=[Os+2]=[O] in the records?
Data returned: > 100000 nM

----------
System: COLO 205 colon
run-description: NCI tumour cell line growth inhibition, 48 h
metric-name: TGI (µM)
Output spec: scalar in µM, unitless text.

chem-smiles: CCn1cc(C(=O)O)c(=O)c2cc(F)c(N3CCN(S(=O)(=O)c4ccc(Cl)cc4)CC3)cc21
test-system: COLO 205 colon
TGI (µM): 5.84

chem-smiles: O=c1c2cc(F)ccc2sc2c(N3CCNCC3)nc3ccccc3c12
test-system: COLO 205 colon
TGI (µM): 4.03

Consider now this further compound.
Data request: Report TGI for CCN1CCN(c2cc(C)nc(N(CCNc3ccnc4cc(Cl)ccc34)Cc3ccc4c(c3)OCO4)n2)CC1 tested on COLO 205 colon.
Data returned: 3.26

----------
System: 786-0 renal
run-description: NCI tumour cell line growth inhibition, 48 h
metric-name: TGI (µM)
Expressed in µM, but write only the number.

compound: CC(C)(C)C1CCC2c3c([nH]c4ccccc34)C3C(=O)N(c4cccc([N+](=O)[O-])c4)C(=O)C3C2C1 (stereo not given)
readout-value: 43.7

Now turn to the next compound.
Data request: State its TGI on 786-0 renal: C/C(=N\O)c1ccc(Nc2nc3ccccc3c3occc23)cc1
Data returned: 9.93

----------
Listed compounds paired with reported TGI
Test system: NCI-H460 lung
run-description: NCI tumour cell line growth inhibition, 48 h

Solved entries (count: 4):
compound: CC(=O)NCCc1c(-c2[nH]c3ccccc3c2CCNC(C)=O)[nH]c2ccccc12
test-system: NCI-H460 lung
TGI: > 100 µM

compound: O=C1CCCCCCCCCCC(=O)N2CCOCCOCCN1Cc1cccc(n1)C2
test-system: NCI-H460 lung
TGI: > 100 µM

compound: Cc1ccc2nc(-c3ccc(N)c(Br)c3)sc2c1
test-system: NCI-H460 lung
TGI: 31.5 µM

compound: Cc1cc(S(=O)(=O)n2ccnc2Oc2cccc(Cl)c2)c(SSc2cc(Cl)c(C)cc2S(=O)(=O)n2ccnc2Oc2cccc(Cl)c2)cc1Cl
test-system: NCI-H460 lung
TGI: > 71.1 µM

Now for the compound whose TGI we want.
Data request: Can you look up the measured TGI of O=C1CC(=O)NC(=NN2C(=O)CSC2c2ccccc2)N1 (stereo not given) for me?
Data returned: > 100 µM
